Hello, the source for this data is PubChem BioAssay (EPA / NIEHS), in case you need it.

Biological target: AR (gene 367)
Experiment: ACEA_AR_antagonist_80hr: ACEA Biosciences xCELLigence Real-Time Cell Analysis on Androgen Receptor Antagonism for Proliferation (AID 2283787);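 further: 22Rv1 human prostate cancer cells with growth followed by electrical impedance; hits lower the impedance growth signal relative to DMSO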
Procedure: ACEA_AR_antagonist is a cell-based, single-readout assay that uses 22Rv1, a human prostate cancer cell line, with measurements taken at 80 hours after chemical dosing in a 384-well plate, although TO5 and TO6 (mc0.srcf) used a 96-well plate. Differences in plate size can be ignored given data normalization.ACEA_AR_antagonist_80hr is one of two assay component(s) measured or calculated from the ACEA_AR assay. […]
Inconclusive results are not listed. Activity calls are given as the source filed them. How the source made its calls: active means hit-call score of the fitted dose curve at least 0.9, where 1 is the maximum; inconclusive means response in the unintended direction; inactive means score below 0.9.
Lab note: assign the record to one of active, inactive

compound	class label
CCNc1nc(Cl)nc(NC(C)(C)C)n1	inactive
CO/N=C(/C(=O)OC)c1ccccc1COc1ccccc1C	inactive
CC(C)(C)N(NC(=O)c1ccc(Cl)cc1)C(=O)c1ccccc1	inactive
CCN(CC)c1ccccc1	inactive
c1cc2c3c(cccc3c1)CC2	inactive

Q: Please let me know the test result on file for `CC1(C)CN=C(NN=C(/C=C/c2ccc(C(F)(F)F)cc2)/C=C/c2ccc(C(F)(F)F)cc2)NC1` .
Result: active

Q: Which outcome was entered for the compound ClC1=C(Cl)C2(Cl)C3C(Cl)C(Cl)CC3C1(Cl)C2(Cl)Cl (centres undefined) in this test?
Result: active

Q: For CCCCC(CC)COP(=O)(Oc1ccccc1)Oc1ccccc1 (centres undefined) , which call appears in the assay record?
Result: active

Q: Each compound tested received a call. Report the one for `[N-]=[N+]=[N-]` .
Result: active

====

assay: BSK_hDFCGF_SRB: Viability Assessment in the BioMAP Diversity Plus: hDFCGF Assay (AID 2283061); details: primary human foreskin fibroblasts;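 further: cells exposed to compound for 24 h before the read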
Active and inactive are the calls of the source. How the source made its calls: active means hit-call score of the fitted dose curve at least 0.9, where 1 is the maximum; inactive means score below 0.9.
Hello, when you answer, please use one of the following outcomes: true (1) for active, false (0) for inactive

compound	class label
Nc1ccc([N+](=O)[O-])cc1Cl	false (0)
O=P(Oc1ccccc1)(Oc1ccccc1)Oc1ccccc1	false (0)
O=S(=O)(F)C(F)(F)C(F)(F)C(F)(F)C(F)(F)C(F)(F)C(F)(F)C(F)(F)C(F)(F)F	false (0)
N#Cc1c(-c2ccc(Cl)cc2)[nH]c(C(F)(F)F)c1Br	true (1)
O=C(O)C1C(C(=O)O)C2(Cl)C(Cl)=C(Cl)C1(Cl)C2(Cl)Cl (configuration not stated)	false (0)
O=[N+]([O-])c1ccccc1	false (0)
O=C(O)C(Cl)Cl	false (0)
COC(=O)C(F)(F)C(F)(F)OC(F)(C(F)(F)F)C(F)(F)OC(F)=C(F)F (configuration not stated)	false (0)
CCCCOCCOP(=O)(OCCOCCCC)OCCOCCCC	false (0)
O=C(O)C(F)(OC(F)(F)C(F)(F)C(F)(F)F)C(F)(F)F (configuration not stated)	false (0)

In the following, a different compound is considered.
Q: Any idea what this test logged for O=P(OCC(Br)CBr)(OCC(Br)CBr)OCC(Br)CBr (configuration not stated) ?
Result: false (0)

====

assay: ATG_BRE_CIS: Attagene CIS-FACTORIAL HepG2 Assay for human Bone Morphogenetic Protein (BMP) Response Element (BRE) (AID 2282933); conditions: HepG2 BMP response element reporter, Attagene transcription factor profiling; actives raise or lower the signal
Activity calls are given as the source filed them. Rule for the calls: active = hit-call score of the fitted dose curve at least 0.9, where 1 is the maximum; inactive = score below 0.9.
Returns: one label drawn from TRUE = active, FALSE = inactive

compound	class label
N#Cc1c(-c2ccc(Cl)cc2)[nH]c(C(F)(F)F)c1Br	TRUE

Q: // outcome(item) with item = `ClC(Cl)=C(c1ccc(Cl)cc1)c1ccccc1Cl`
Result: FALSE

Q: Record request — test call for COC(=O)C(F)(F)C(F)(F)OC(F)(C(F)(F)F)C(F)(F)OC(F)=C(F)F (stereo not given)
Result: FALSE

Q: Test call, this compound: `Clc1ccc(Oc2ccccc2)cc1`
Result: FALSE

Q: Could you check what this test reported for `Oc1ccccc1Br` ?
Result: FALSE

Q: Hey, what did the test say about `CCCCN(CC)C(=O)SCCC` ?
Result: FALSE
